- Test system: Mycobacterium tuberculosis
- measurement.description: Cornell - Phenotypic assay to identify agents that inhibit growth of Mycobacterium tuberculosis
- Format: functional
- Set-up: scale not given: direction of the effect not stated beside the values
- condition: 10 mM as filed; unlikely as a test dose
About 900 (1.7%) of roughly 53,000 compounds showed an effect of 50% or more. The sample holds strong results, similar compounds and a random draw of the others, so the mix is not that of the screen.
metric.name: Percent Effect (%)
One number for each entry, in %.

Recorded Percent Effect, per entry:
                                   compound  data_value
0  COc1ccccc1C1CCN(C(=O)CN2C(=O)OC(C)(C)C2=O)CC1       53.49
1  O=C(Nc1cnn(-c2ccccc2Cl)c1)N[C@@H]1C=C[C@H](CO)C1       52.75
2  O=C(Nc1cnn(Cc2ccc(Cl)cc2)c1)N[C@@H]1C=C[C@H](CO)C1       24.39
3  FC(F)(F)c1cc(C2CCCN(c3ncccn3)C2)n2ccnc2n1 (stereo not given)       58.69

// moving on: another record for Percent Effect
Item CC1(C)OC(=O)N(CC(=O)N2CCC(c3ccccc3Cl)C2)C1=O (stereo not given) ; assay system Mycobacterium tuberculosis; Percent Effect reported as 25.58
